assayEndpoint: melting point

Examples with answers:
[Q] Given the entry CCCN(Cc1ccc(C(=O)N(CCC)C2CCc3ncsc3C2)cc1)C1CCc2ncsc2C1 (stereo not drawn) , report its measured melting point.
[A] 85 °C

[Q] // repeat for "CCCCCCCCCCCCOc1ccc(NC(=O)C(=O)OCC)cc1" and report
[A] 70.5 to 72 °C

Hi team, please reply with melting point for each item in this list.
1. Cc1cccc2c1C(=O)N(CO)S2(=O)=O
2. Cc1sc2nc(N(CCO)CCO)nc(NCc3ccccn3)c2c1Br
3. Cc1ncsc1C(=O)Nc1cnc(-n2nc(C(F)(F)F)cc2C2CC2)nc1
4. Cc1cc(-c2c3ccccc3c(Br)c3sc(C)c(C)c23)cc(C)c1OS(=O)(=O)c1ccc(C(=O)OC(C)(C)C)c(O)c1
5. CC(C)(CO)c1ccc2c(c1)OC(C(F)(F)F)C(C(=O)O)=C2 (stereo not drawn)

[A]
["196 to 198 °C", "152 °C", "148 to 152 °C", "168 to 172 °C", "229 to 230 °C"]

Report melting point for every entry below.
1. CC(C)(C)[Si](C)(C)Oc1ccc2c(ccc3c4ccc(O[Si](C)(C)C(C)(C)C)cc4oc(=O)c23)c1
2. CC(C)C[C@H](NC(=O)c1cccs1)C(=O)N[C@@H](C(C)C)[C@@H](O)c1c(-c2ccccc2)c1=O
3. CCOC(=O)C1Cc2c([nH]c3ccccc23)C(c2ccc(N(C)C)cc2)N1 (stereo not drawn)

[A]
154 to 156 °C
171 to 172 °C
170 °C

###

Kindly state melting point for each of the entries shown.

[Q] Consider the compound CCOC(=O)C(NC(=O)OC(C)(C)C)c1csc(N)n1 (configuration not stated) and give its measured melting point.
[A] 143 to 144 °C

[Q] Can you check "CCCOc1ccccc1-c1nc2n(C3CCCC3)[nH]c(C)c-2c(=O)n1" next?
[A] 130 to 132 °C

[Q] How about "CCOC(=O)COc1ccc(Oc2ccc3cc(Cl)ccc3n2)cc1" ?
[A] 95 °C

Fill in melting point for each of the 7 compounds listed.
1. Clc1cc(CBr)c2noc(-c3ccccc3)c2c1
2. Cc1cc(O)nc2[nH]nc(C)c12
3. Cc1cccc2nc(CSc3ncnc4[nH]cnc34)n(-c3ccccc3F)c(=O)c12
4. Cc1ccc(S(=O)(=O)OCC2(CO)OC(n3ccc(=O)[nH]c3=O)C(O)C2O)cc1 (configuration not stated)
5. c1ccc(Nc2ccncc2Oc2ccccc2)cc1
6. COc1cc(-c2nc3ccc(OCC(C)N(C)C)cc3n2Cc2ccccc2C(F)(F)F)cc(OC)c1OC (configuration not stated)
7. N#Cc1c(O)csc1N1CCOCC1

[A]
1: 142 to 144 °C; 2: 233 to 235 °C; 3: 152 °C; 4: 119 to 120 °C; 5: 111 to 113 °C; 6: 163 °C; 7: 191 °C

Report melting point for each item below.
1. CCOc1cc(N)c([N+](=O)[O-])cc1C(=O)OC
2. Cc1ccc(S(=O)(=O)N2CCCC2c2cccc(Cl)c2)cc1 (racemic)
3. Cc1c(C2=CCC(c3ccccc3)(N(C)C)CC2)[nH]c2ccc(F)cc12 (configuration not stated)
4. O=C(NCCO[N+](=O)[O-])c1cnc(-c2ccccc2)s1
5. Cc1sc(N)c(C(=O)c2ccccc2)c1C
6. CCC(=O)c1cc2c(s1)CCC1CC(=O)N(c3ccc(Cl)cc3)N=C21 (configuration not stated)
7. COc1ccc2oc3ccc([N+](=O)[O-])cc3c2c1C(=O)Nc1cccnc1

[A]
210 °C
107 °C
171 to 175 °C
148 to 149 °C
140 to 141 °C
135 to 138 °C
263 to 266 °C

Could you report melting point for every entry in the following list?
1. CNC(=C[N+](=O)[O-])NCCSCc1cc(OC)ccn1
2. O=C1c2cccc(NC(=S)Nc3ncccc3Br)c2C2CCCCN12 (configuration not stated)

[A]
1. 107 to 108 °C
2. 180 °C

Dear colleague, could you send me melting point for each of the items below? Thanks.
1. O=C(O)c1cnc2ccc(-c3ccc(C(F)(F)F)cc3)cn12
2. COC(=O)c1ccccc1COc1cccc2oc(C)cc12

[A]
1: 220 °C; 2: 93 to 95 °C

Go through the list and state melting point for each entry.
1. O=C1c2ccccc2-c2[nH]c(=O)c(-c3ccccc3)nc21
2. Cn1c(-c2ccccc2)c(CCC(=O)O)c2ccccc2c1=O
3. CCCc1c(OCCCOc2ccc(C(=O)O)cc2)ccc(C(C)=O)c1O
4. Cc1cc(C#Cc2cnn3c(C(F)(F)F)cc(-c4ccc(C(F)(F)F)cc4)nc23)ccn1

[A]
1: > 300 °C; 2: 138 to 140 °C; 3: 180 to 183 °C; 4: 206 °C

Would you be so kind as to report melting point for each listed record?
1. Cc1sccc1C1(c2cccc(-c3cncnc3)c2)N=C(N)N(C)C1=O (configuration not stated)
2. Cc1cc2c(-c3ccccc3)c(CC(=O)O)n(C)c(=O)c2cc1C
3. CCCOc1ccc(C(=O)CCC(=O)O)cc1

[A]
154 to 159 °C
217 to 220 °C
116 to 117 °C

Field: melting point. Fill in for each record below.
1. CCCCCCc1c(C(F)(F)F)noc1NS(=O)(=O)c1ccccc1
2. O=S(=O)(NC1CCC(O)CC1)c1ccc(Cl)cc1 (configuration not stated)

[A]
1. 128 to 129 °C
2. 138 to 142 °C

Items follow; give melting point for each.
1. Cc1nc([C@H](Cc2ccccn2)N(C=O)c2cc3ccccc3[nH]2)n(C)c1-c1ccc(-n2ccnc2)cc1
2. CC(=O)OC1CSC(Oc2cccnc2C(=O)N(C)C)C(OC(C)=O)C1OC(C)=O (configuration not stated)
3. CN1CCN(c2cc3c(cc2F)C(=O)c2nc4ccccc4c(=O)n2-3)CC1

[A]
1: 156 to 157 °C; 2: 85 to 89 °C; 3: 257 to 258 °C

###

assayEndpoint: melting point

Before answering, review these 5 worked examples.
[Q] Given "O=C(O)c1nc2n(n1)-c1cccnc1N(C1CCCCC1)C2" , state its recorded melting point.
[A] 170 to 176 °C

[Q] What do we get for CC(=O)CCc1ccc2c(c1)COc1ccc(OCc3ccc4cc(F)c(Cl)cc4n3)cc1C2SCCC(=O)O (stereo not given) ?
[A] 115 to 118 °C

[Q] Request: "Cc1c(Cl)cc(Cl)cc1Br"
[A] 84 to 85 °C

[Q] What do you have for "CC(C)c1ccc(S(=O)(=O)NC(=O)Cc2ccc3c(c2)OCO3)cc1" ?
[A] 262 to 263 °C

[Q] Now consider "CN1C(=O)c2cnc(-c3ccccc3)nc2N(C(=O)CN2CCN(Cc3ccccc3)CC2)c2ccccc21" .
[A] 194 °C

Report melting point for each item below.
1. Cc1ccc(C2CN(c3cc4c(cc3F)ncc3c4c(=O)c(C(=O)O)cn3C)CCN2)cc1C (stereo not given)
2. CCCCCCOc1ccc(NS(=O)(=O)c2ccc(N3CCNC3=O)cc2)cc1

[A]
["325 °C", "225 to 226 °C"]

Can you give me melting point for all of these, one by one?
1. CN1CC(CCCl)Oc2cc3ccccc3cc2C1=O (stereo not given)
2. CCCCCCCCCCCCCCCCCCOCC(COC(c1ccccc1)(c1ccccc1)c1ccccc1)OC(=O)N1CCOCC1 (stereo not given)
3. N#Cc1cc(C#N)cc(C=O)c1
4. COC(=O)c1ccc(COc2ccc(-c3cc(O)c(SCCc4ccccc4)c(=O)o3)cc2)cc1
5. CC(=O)Nc1ccc(C(C)(C)C)cc1OC(C)=O
6. O=C1CCC(N2Cc3c(OCc4ccc(CN5CCC(F)(F)C5)cc4)cccc3C2=O)C(=O)N1 (stereo not given)
7. O=c1[nH]cnc(C(F)(F)F)c1Br
8. CCCCCC(C)C(C)c1cc(O)c2c(c1)OC(C)(C)C1=C2CN(CC(=O)N(C)C)CC1 (stereo not given)

[A]
1. 101 to 102 °C
2. 78 to 79 °C
3. 203 to 204 °C
4. 157 to 158 °C
5. 109 to 110 °C
6. 126 to 128 °C
7. 226 to 227 °C
8. 122 to 124 °C

Take each entry in turn and give its melting point.
1. N#CCCNC(=O)c1cccc(-c2cccc3nc(Cc4cccc(C(F)(F)F)c4)cn23)c1
2. O=C1C=CCC(c2ccccc2)(c2ccccc2)O1
3. COc1ccc(NC(=O)OC(C)(C)C)c(C(=O)C2CC2)c1

[A]
1: 192 to 193 °C; 2: 170 to 173 °C; 3: 96 to 97 °C

List the reported melting point of each compound below.
1. CN(C)c1ccc(C=C2SC(=S)N(CC(=O)O)C2=O)cc1
2. COc1ccc(C2CCN(c3c(C)c(C)c4c(c3C)C(O)(c3ccccc3)C(C)(C)O4)CC2)cc1OC (stereo not given)

[A]
1. 260 to 264 °C
2. 143 to 145 °C
